tested.on: T1, mouse vascular endothelial growth factor receptor-2 Fc chimera (Flk-1-Fc) (mouse, UniProt P35918 20-762)
T1 construct: Purchased from R&D Systems; also called mouse VEGF-R2; not shown: Fc part of the purchased chimera
measurement.description: radioactive equilibrium binding (assay not given)
Kd listing for selected binders.
Lab book: enter the figure in nM, no units written.

The binder E26 (designed binder, Del 1-8 10Fn3 clone; Tags not included) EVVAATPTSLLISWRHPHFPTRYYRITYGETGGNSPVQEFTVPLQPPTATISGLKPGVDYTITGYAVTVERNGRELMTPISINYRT showed Kd equal to 2.05

Kd recorded for this binder, E9 (designed binder, Del 1-8 10Fn3 clone; Flag tag of the radioactive-assay form not included) EVVAATPTSLLISWRHPHFPTRYYRITYGETGGNSPVQEFTVPLQPPTATISGLKPGVDYTITGYAVTEERNGRTLRTPISINYRT , is 1.4

# Kd (binder: E29 (designed binder, Del 1-8 10Fn3 clone; Tags not included) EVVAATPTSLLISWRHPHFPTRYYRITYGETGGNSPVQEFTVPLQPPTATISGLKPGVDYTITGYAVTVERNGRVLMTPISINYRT ) is 0.91
